Where these numbers come from: the supplement of paper PMC10307832

Test system: NCI-H3122
Assay: relative viability (nuclei count vs DMSO), 5 days (fraction); higher = more cells survive
Details: first compound 8 µM
outcome measure: relative viability

- compound: "O=c1[nH]c2ccccc2n1C1CCN(CCCC(c2ccc(F)cc2)c2ccc(F)cc2)CC1 [Pimozide] + N=C(N)NC(=N)NCCc1ccccc1 [Phenformin] (partner 250 µM)"
  result value: 0.312
- compound: "O=c1[nH]c2ccccc2n1C1CCN(CCCC(c2ccc(F)cc2)c2ccc(F)cc2)CC1 [Pimozide] + CC(C)C[C@H](NC(=O)[C@H](Cc1ccccc1)NC(=O)c1cnccn1)B(O)O [Bortezomib] (partner 0.002 µM)"
  result value: 1.01
- compound: "O=c1[nH]c2ccccc2n1C1CCN(CCCC(c2ccc(F)cc2)c2ccc(F)cc2)CC1 [Pimozide] + O=C(CCCCCCC(=O)Nc1ccccc1)NO [Vorinostat] (partner 1 µM)"
  result value: 0.847
- compound: "O=c1[nH]c2ccccc2n1C1CCN(CCCC(c2ccc(F)cc2)c2ccc(F)cc2)CC1 [Pimozide] + CS(=O)(=O)N1CCN(Cc2cc3nc(-c4cccc5[nH]ncc45)nc(N4CCOCC4)c3s2)CC1 [Pictilisib] (partner 1 µM)"
  result value: 0.573

###

Tested on: RERF-LC-KJ
Assay: relative viability (nuclei count vs DMSO), 5 days (fraction); higher = more cells survive
Conditions: first compound 0.02 µM
outcome measure: relative viability

- compound: "CC(=O)O[C@@]12CO[C@@H]1C[C@H](O)[C@@]1(C)C(=O)[C@H](O)C3=C(C)[C@@H](OC(=O)[C@H](O)[C@@H](NC(=O)OC(C)(C)C)c4ccccc4)C[C@@](O)([C@@H](OC(=O)c4ccccc4)[C@H]21)C3(C)C [Docetaxel] + Cc1nc(Nc2ncc(C(=O)Nc3c(C)cccc3Cl)s2)cc(N2CCN(CCO)CC2)n1 [Dasatinib] (partner 0.075 µM)"
  outcome measure: "relative viability"
  result value: 0.155
- compound: "CC(=O)O[C@@]12CO[C@@H]1C[C@H](O)[C@@]1(C)C(=O)[C@H](O)C3=C(C)[C@@H](OC(=O)[C@H](O)[C@@H](NC(=O)OC(C)(C)C)c4ccccc4)C[C@@](O)([C@@H](OC(=O)c4ccccc4)[C@H]21)C3(C)C [Docetaxel] + O=C(CCCCCCC(=O)Nc1ccccc1)NO [Vorinostat] (partner 1 µM)"
  outcome measure: "relative viability"
  result value: 0.151
- compound: "CC(=O)O[C@@]12CO[C@@H]1C[C@H](O)[C@@]1(C)C(=O)[C@H](O)C3=C(C)[C@@H](OC(=O)[C@H](O)[C@@H](NC(=O)OC(C)(C)C)c4ccccc4)C[C@@](O)([C@@H](OC(=O)c4ccccc4)[C@H]21)C3(C)C [Docetaxel] + Cc1nc(NC(=O)N2CCC[C@H]2C(N)=O)sc1-c1ccnc(C(C)(C)C(F)(F)F)c1 [Alpelisib] (partner 2 µM)"
  outcome measure: "relative viability"
  result value: 0.172
- compound: "CC(=O)O[C@@]12CO[C@@H]1C[C@H](O)[C@@]1(C)C(=O)[C@H](O)C3=C(C)[C@@H](OC(=O)[C@H](O)[C@@H](NC(=O)OC(C)(C)C)c4ccccc4)C[C@@](O)([C@@H](OC(=O)c4ccccc4)[C@H]21)C3(C)C [Docetaxel] + CC(=O)Nc1cccc(-n2c(=O)n(C3CC3)c(=O)c3c(Nc4ccc(I)cc4F)n(C)c(=O)c(C)c32)c1 [Trametinib] (partner 0.02 µM)"
  outcome measure: "relative viability"
  result value: 0.142
- compound: "CC(=O)O[C@@]12CO[C@@H]1C[C@H](O)[C@@]1(C)C(=O)[C@H](O)C3=C(C)[C@@H](OC(=O)[C@H](O)[C@@H](NC(=O)OC(C)(C)C)c4ccccc4)C[C@@](O)([C@@H](OC(=O)c4ccccc4)[C@H]21)C3(C)C [Docetaxel] + N=C(N)NC(=N)NCCc1ccccc1 [Phenformin] (partner 250 µM)"
  outcome measure: "relative viability"
  result value: 0.195
- compound: "CC(=O)O[C@@]12CO[C@@H]1C[C@H](O)[C@@]1(C)C(=O)[C@H](O)C3=C(C)[C@@H](OC(=O)[C@H](O)[C@@H](NC(=O)OC(C)(C)C)c4ccccc4)C[C@@](O)([C@@H](OC(=O)c4ccccc4)[C@H]21)C3(C)C [Docetaxel] + COc1cccc2cc(-c3nc([C@H]4CC[C@H](C(=O)O)CC4)n4ncnc(N)c34)[nH]c12 [OSI-027] (partner 0.5 µM)"
  outcome measure: "relative viability"
  result value: 0.161

###

Reported relative viability is given for each of the following molecules.
System: SK-LU-1
Assay: relative viability (nuclei count vs DMSO), 5 days (fraction); higher = more cells survive
Details: first compound 4 µM

- molecule: "Cc1sc2c(c1C)C(c1ccc(Cl)cc1)=N[C@@H](CC(=O)OC(C)(C)C)c1nnc(C)n1-2 [JQ1] + C[C@@H](Oc1cc(-c2cnn(C3CCNCC3)c2)cnc1N)c1c(Cl)ccc(F)c1Cl [Crizotinib] (partner 1 µM)"
  relative viability: 0.148
- molecule: "Cc1sc2c(c1C)C(c1ccc(Cl)cc1)=N[C@@H](CC(=O)OC(C)(C)C)c1nnc(C)n1-2 [JQ1] + Nc1ncn([C@H]2C[C@H](O)[C@@H](CO)O2)c(=O)n1 [Decitabine] (partner 2 µM)"
  relative viability: 0.213
- molecule: "Cc1sc2c(c1C)C(c1ccc(Cl)cc1)=N[C@@H](CC(=O)OC(C)(C)C)c1nnc(C)n1-2 [JQ1] + CS(=O)(=O)CCNCc1ccc(-c2ccc3ncnc(Nc4ccc(OCc5cccc(F)c5)c(Cl)c4)c3c2)o1 [Lapatinib] (partner 2 µM)"
  relative viability: 0.271
- molecule: "Cc1sc2c(c1C)C(c1ccc(Cl)cc1)=N[C@@H](CC(=O)OC(C)(C)C)c1nnc(C)n1-2 [JQ1] + Nc1nc2[nH]cc(CCc3ccc(C(=O)N[C@@H](CCC(=O)O)C(=O)O)cc3)c2c(=O)[nH]1 [Pemetrexed] (partner 0.2 µM)"
  relative viability: 0.181
- molecule: "Cc1sc2c(c1C)C(c1ccc(Cl)cc1)=N[C@@H](CC(=O)OC(C)(C)C)c1nnc(C)n1-2 [JQ1] + COc1cccc2cc(-c3nc([C@H]4CC[C@H](C(=O)O)CC4)n4ncnc(N)c34)[nH]c12 [OSI-027] (partner 0.5 µM)"
  relative viability: 0.143

###

Listing: relative viability of selected compounds
System: NCI-H460
Assay: relative viability (nuclei count vs DMSO), 5 days (fraction); higher = more cells survive
Details: first compound 158.11 µM
outcome measure: relative viability

- compound: "O=C(O)CCCCC(CCSCc1ccccc1)SCc1ccccc1 (centres undefined) [CPI-613] + CC1(C)CCC(c2ccc(Cl)cc2)=C(CN2CCN(c3ccc(C(=O)NS(=O)(=O)c4ccc(N[C@H](CCN5CCOCC5)CSc5ccccc5)c(S(=O)(=O)C(F)(F)F)c4)cc3)CC2)C1 [Navitoclax] (partner 0.5 µM)"
  target desc: "NCI-H460"
  result value: 0.29
- compound: "O=C(O)CCCCC(CCSCc1ccccc1)SCc1ccccc1 (centres undefined) [CPI-613] + CC(C)C[C@H](NC(=O)[C@H](Cc1ccccc1)NC(=O)c1cnccn1)B(O)O [Bortezomib] (partner 0.002 µM)"
  target desc: "NCI-H460"
  result value: 0.445
- compound: "O=C(O)CCCCC(CCSCc1ccccc1)SCc1ccccc1 (centres undefined) [CPI-613] + CS(=O)(=O)N1CCN(Cc2cc3nc(-c4cccc5[nH]ncc45)nc(N4CCOCC4)c3s2)CC1 [Pictilisib] (partner 1 µM)"
  target desc: "NCI-H460"
  result value: 0.419
- compound: "O=C(O)CCCCC(CCSCc1ccccc1)SCc1ccccc1 (centres undefined) [CPI-613] + Cc1nc(NC(=O)N2CCC[C@H]2C(N)=O)sc1-c1ccnc(C(C)(C)C(F)(F)F)c1 [Alpelisib] (partner 2 µM)"
  target desc: "NCI-H460"
  result value: 0.0466

###

Below is a list of entries, each paired with its recorded relative viability value.
Tested on: NCI-H23
Test: relative viability (nuclei count vs DMSO), 5 days (fraction); higher = more cells survive
Details: first compound 0.253 µM
outcome measure: relative viability

- molecule: "O=c1[nH]c2ccccc2n1C1CCN(CCCC(c2ccc(F)cc2)c2ccc(F)cc2)CC1 [Pimozide] + Cc1cc(Nc2cc(N3CCN(C)CC3)nc(Sc3ccc(NC(=O)C4CC4)cc3)n2)n[nH]1 [Tozasertib] (partner 0.1 µM)"
  outcome measure: "relative viability"
  result value: 0.396
- molecule: "O=c1[nH]c2ccccc2n1C1CCN(CCCC(c2ccc(F)cc2)c2ccc(F)cc2)CC1 [Pimozide] + CC(=O)c1c(C)c2cnc(Nc3ccc(N4CCNCC4)cn3)nc2n(C2CCCC2)c1=O [Palbociclib] (partner 0.5 µM)"
  outcome measure: "relative viability"
  result value: 0.525
